- System name: Arachidonate 5-lipoxygenase-activating protein (Homo sapiens, UniProt P20292)
- Sequence (P20292 whole entry): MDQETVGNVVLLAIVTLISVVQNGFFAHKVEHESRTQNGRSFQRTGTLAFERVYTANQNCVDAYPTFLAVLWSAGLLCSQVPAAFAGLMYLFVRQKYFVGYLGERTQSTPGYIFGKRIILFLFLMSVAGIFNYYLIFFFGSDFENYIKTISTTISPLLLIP
- Assay info: Inhibition of [3H]MK0591 binding to human FLAP expressed in […] cell membranes measured after 60 to 80 mins by scintillation counting method
Measured metric: IC50 (nM)

Molecule	IC50 / nM
Cn1cc(NC(=O)[C@@H]2C[C@@H]3C[C@@H]3C[C@H]2C(=O)c2ccc(-c3cc[nH]n3)cc2)c(C(F)(F)F)n1	12.6

[1] Cc1cnn(-c2ccc(C(=O)[C@@H]3CCCC[C@H]3C(=O)Nc3cccc(C(N)=O)c3)cc2)c1 (racemic)
[2] Cc1nn(C)cc1NC(=O)[C@@H]1CCCC[C@H]1C(=O)c1ccc(-c2cc[nH]n2)cc1
[3] Cc1nn(C)cc1NC(=O)[C@@H]1CCCC[C@H]1C(=O)c1ccc(-c2cc[nH]n2)nc1 (racemic)
Exam item: Sort the 3 molecules by IC50; largest first, smallest last. Answer by naming the labels in the order asked.
Marked response: 3, 1, 2
(3: 1000 nM, 1: 316 nM, 2: 50.1 nM)

----------
- Assay info: Protein binding in human plasma assessed as unbound fraction by LC-MS based equilibrium dialysis analysis
- Type: ADME, cell-free
Measured metric: fraction unbound

Here's what some known entries look like.
Compound	fraction unbound
Cn1cc(NC(=O)[C@@H]2CCCC[C@H]2C(=O)c2ccc(-c3cc[nH]n3)cc2)c(C(F)(F)F)n1	0.063
Cn1ncc(NC(=O)[C@@H]2CCCC[C@H]2C(=O)c2ccc(-c3cc[nH]n3)cc2)c1C(F)(F)F	0.075
Cn1ncc(NC(=O)[C@@H]2C[C@@H]3C[C@@H]3C[C@H]2C(=O)c2ccc(-c3cc[nH]n3)cc2)c1C(F)(F)F	0.066
Cc1cc(-c2ccc(C(=O)[C@@H]3CCCC[C@H]3C(=O)Nc3cn(C)nc3C)cc2)n[nH]1	0.11

[a] Cc1nn(C)cc1NC(=O)[C@@H]1CCCC[C@H]1C(=O)c1ccc(-c2cc[nH]n2)cc1F (racemic)
[b] Cc1cc(-c2ccc(C(=O)[C@@H]3CCCC[C@H]3C(=O)Nc3cn(C)nc3C(N)=O)cc2)n[nH]1
Exam item: Of the pair a and b , name the member with the lesser recorded fraction unbound. Refer to your chosen item by its label in the answer.
Marked response: b

----------
- Assay info: Protein binding in Sprague-Dawley rat plasma assessed as unbound fraction by LC-MS based equilibrium dialysis analysis
- Type: ADME, cell-free
Measured metric: fraction unbound

Molecule	Readout value
Cc1nn(C)cc1NC(=O)[C@@H]1CCCC[C@H]1C(=O)c1ccc(-c2cc[nH]n2)cc1F (racemic)	0.11
Cn1ncc(NC(=O)[C@@H]2C[C@@H]3C[C@@H]3C[C@H]2C(=O)c2ccc(-c3cc[nH]n3)cc2)c1C(F)(F)F	0.04
Cc1cc(-c2ccc(C(=O)[C@@H]3CCCC[C@H]3C(=O)Nc3cn(C)nc3C)cc2)n[nH]1	0.043
Cn1ncc(NC(=O)[C@@H]2CCCC[C@H]2C(=O)c2ccc(-c3cc[nH]n3)cc2)c1C(F)(F)F	0.042

[P] Cc1cc(-c2ccc(C(=O)[C@@H]3CCCC[C@H]3C(=O)Nc3cn(C)nc3C(N)=O)cc2)n[nH]1
[Q] Cn1cc(NC(=O)[C@@H]2CCCC[C@H]2C(=O)c2ccc(-c3cc[nH]n3)cc2)c(C(F)(F)F)n1
Exam item: Of the pair P and Q , name the member with the lesser recorded fraction unbound. Refer to your chosen item by its label in the answer.
Marked response: P
(P: 0.024, Q: 0.054)

Values compiled from ChEMBL document CHEMBL4350955.
